- study system: T1, hHER3 full length (human, UniProt P21860 20-1342)
- T1 construct: On transfected CHO, CHO HER2/HER3, CHO EGFR/HER3 or CHO Flp-In cells; endogenous HER3 of MCF-7 and MDA-MB468 cells in the signalling assays; also called human HER3
- experimental details: FACS competition with HRG1-β1-EGF, CHO-HER3
readout kind: IC50 (nM)

Here are 4 binders together with their reported answers.
>  <binder>
18F05 (VHH, also called 18F5) VHH: EVQLVESGGGLVQPGGSLRLSCVASGFTFSSYWMYWVRQAPGKGVEWVSAISPGGVERYTDSVKGRFTISRDNAKNTLYLQMNSLKSEDTAMYYCARLTSFATPESQGTQVTVSS

>  <IC50 (nM)>
20.1

$$$$
>  <binder>
21B02 (VHH) VHH: EVQLVESGGGLVQPGGSLRLSCAASGFTFDYYTIGWFRQAPGKEREGVSCISSRDGDSYYADSVKGRFTISRDNAKNTAYLQMNSLKPEDTAVYYCAASASDYGLGLELFHDEYNYWGQGTQVTVSS

>  <IC50 (nM)>
13.3

$$$$
>  <binder>
18B05 (VHH) VHH: EVQLVESGGGLVQAGGSLRLSCAASGLTFGSAPMGWYRQAPGKERELVAYISGDERIWYGDSVKGRFTISRDTTKNTLYLQMNSLKPEDTAVYYCVSDVKVRHWGQGTQVTVSS

>  <IC50 (nM)>
16.1

$$$$
>  <binder>
21F06 (VHH, c-myc, His6-tagged form as expressed; also called 21F6; HER3MS21F06) VHH: EVQLVESGGGLVQAGGSLRLSCAASGRTYYLNAMGWFRQGPGKDREFVAAIDWSDGNKDYADSVKGRFTISRDNAKNTVYLQMNSLKPEDTAVYYCAADTPPWGPMIYIESYDSWGQGTQVTVSS

>  <IC50 (nM)>
10.1

$$$$

P: 04C07 (VHH, also called HER3MS04C07; HER3MS004C07) VHH: EVQLVESGGGLVQAGGSLRLSCAASGFTFSSYPMSWVRQAPGKGPAWVSTVSPGGITTSYADSVKGRFTISRDNAKNTLYLQMNSLKPEDTAVYYCLRDLNNRGQGTQVTVSS
Q: 17E08 (VHH) VHH: EVQLVESGGGLVQPGGSLRLSCSASGSIFGLNAMGWYRQTPGKERELVAGITSITRVGSTRYADSAKGRFTISGDYAKNTVYLQMNSLKPEDTGVYYCRMSIVKSGGADYWGQGTQVTVSS
R: 23F05 (VHH) VHH: EVQLVESGGGLVQAGGSLRLSCAASGFTFDGYAIGWFRQAPGKEREGVSCISGGDGRSYYADSVKGRFTVSSDNAKNTLYLEMNSLKPEDTAVYYCAVIWGPYCSDSYEYLYEYDYWGQGTQVTVSS
S: 17B05 (VHH, also called HER3MS17B05; HER3MS017B05) VHH: EVQLVESGGGLVQPGGSLRLSCAASGSIGGLNAMAWYRQAPGKERELVAGIFGVGSTRYADSVKGRFTISRDIAKNTVFLQMNSLNSEDTAVYYCRMSSVTRGSSDYWGQGTQVTVSS
Falling order of IC50, please. Provide the ranking by listing each label in its place in the requested order. Q, S, R, P
(Q: 75.9 nM, S: 33.4 nM, R: 9.44 nM, P: 4.26 nM)
